procedure_summary: Toxicity in human RBC assessed as minimum drug level required for 10% hemolysis after 2 hrs
Assay type: cell-based
reported_conditions: erythrocyte
measurement_kind: Activity (µM)
# value in µM; strip the unit string

chemical_structure	unit_string	Activity
CCCCCC[C@@H](NC(=O)[C@H](N)CCCCN)C(=O)N[C@H](C)C(=O)N[C@H](CCCCN)C(=O)N[C@H](CCCCCC)C(=O)N[C@H](C)C(=O)N[C@H](CCCCN)C(=O)N[C@H](CCCCN)C(=O)N[C@H](CCCCCC)C(=O)N[C@H](C)C(=O)N[C@H](CCCCN)C(=O)N[C@H](CCCCCC)C(=O)N[C@H](C)C(=O)N[C@H](CCCCN)C(=O)O	µM	8

Now, please, on to the next molecule.
In: Item under review: C[C@@H](NC(=O)[C@@H](CC1CCCCC1)NC(=O)[C@H](N)CCCCN)C(=O)N[C@H](CCCCN)C(=O)N[C@H](CC1CCCCC1)C(=O)N[C@H](C)C(=O)N[C@H](CCCCN)C(=O)N[C@H](CCCCN)C(=O)N[C@H](CC1CCCCC1)C(=O)N[C@H](C)C(=O)N[C@H](CCCCN)C(=O)N[C@H](CC1CCCCC1)C(=O)N[C@H](C)C(=O)N[C@H](CCCCN)C(=O)O . Reported Activity?
Out: 9
